# System: S. aureus MMX 3035 cErmA
# Measurement Notes: MIC against S. aureus MMX 3035 cErmA
# Type: cell-based
# Study Conditions: Staphylococcus aureus, MMX3035CERMA
Measure: MIC

INPUT: Provide one value: measured MIC of CSC1O[C@H]([C@H](NC(=O)[C@H]2NC[C@@H]3CC(c4ccccc4)=CCO[C@H]32)[C@H](C)Cl)C(O)[C@@H](O)[C@H]1O (stereo partly drawn) [FSA-507056]
OUTPUT: > 32 µg/mL

INPUT: Provide one value: measured MIC of CSC1O[C@H]([C@H](NC(=O)[C@H]2NC[C@@H]3C=C(c4ccccc4)CCO[C@@H]23)[C@H](C)Cl)C(O)[C@@H](O)[C@H]1O (stereo partly drawn) [FSA-507031]
OUTPUT: > 32 µg/mL

INPUT: Provide one value: measured MIC of CSC1O[C@H]([C@H](NC(=O)[C@H]2NC[C@@H]3CC(c4ccc(F)cc4)=CCO[C@H]32)[C@H](C)Cl)C(O)[C@@H](O)[C@H]1O (stereo partly drawn) [FSA-507057]
OUTPUT: > 64 µg/mL

INPUT: Provide one value: measured MIC of CSC1O[C@H]([C@H](NC(=O)[C@H]2NC[C@@H]3C=C(c4ccc(F)cc4)CCO[C@@H]23)[C@H](C)Cl)C(O)[C@@H](O)[C@H]1O (stereo partly drawn) [FSA-507052]
OUTPUT: > 32 µg/mL

INPUT: Provide one value: measured MIC of C=CC1=CCO[C@@H]2[C@H](CN[C@@H]2C(=O)N[C@H]([C@H](C)Cl)[C@H]2OC(SC)[C@H](O)[C@H](O)C2O)C1 (stereo partly drawn) [FSA-507041]
OUTPUT: > 32 µg/mL

INPUT: Provide one value: measured MIC of CSC1O[C@H]([C@H](NC(=O)[C@H]2NC[C@@H]3CC=CCO[C@H]32)[C@H](C)Cl)C(O)[C@@H](O)[C@H]1O (stereo partly drawn) [FSA-24035]
OUTPUT: > 64 µg/mL
